Listed here are compounds together with their documented SI (HDAC6/HDAC8).
- target_of_assay: HDAC8 (Homo sapiens, UniProt Q9BY41)
- Sequence (Q9BY41 whole entry): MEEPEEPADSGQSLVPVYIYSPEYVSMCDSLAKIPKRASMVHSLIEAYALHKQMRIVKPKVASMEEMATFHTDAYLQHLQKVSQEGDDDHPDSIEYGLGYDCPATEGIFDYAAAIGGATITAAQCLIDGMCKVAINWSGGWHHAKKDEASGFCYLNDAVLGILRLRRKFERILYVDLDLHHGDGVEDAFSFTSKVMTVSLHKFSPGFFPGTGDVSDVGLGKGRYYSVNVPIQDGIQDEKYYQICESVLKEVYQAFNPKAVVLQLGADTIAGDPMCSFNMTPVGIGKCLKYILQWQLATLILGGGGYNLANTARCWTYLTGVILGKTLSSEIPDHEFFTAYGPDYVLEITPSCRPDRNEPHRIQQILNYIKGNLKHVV
- test_summary: In vitro HDAC8 activity assay (Fluor de Lys-HDAC8)
- Assay type: biochemical
- Set-up: made in house
- measurement_context: selectivity index, HDAC6 over HDAC8
metric: SI (HDAC6/HDAC8)

>>> print(df.to_string())
                                   compound                       target_of_assay  recorded_measurement
0  Cc1ccc(C(=O)NO)cc1NCc1ccc(OCc2cn(CCCCCC(=O)Nc3cccc4c3C(=O)N(C3CCC(=O)NC3=O)C4=O)nn2)cc1 (stereo not shown) [CRBN_1d]  HDAC8 (Homo sapiens, UniProt Q9BY41)                    18
1    COc1ccc(C(=O)NO)cc1NC(=O)c1ccccc1 [2b]  HDAC8 (Homo sapiens, UniProt Q9BY41)                    28
2  COc1ccc(C(=O)NO)cc1NC(=O)c1ccc(NC(=O)CCCCCCCNc2cccc3c2C(=O)N(C2CCC(=O)NC2=O)C3=O)cc1 (stereo not shown) [CRBN_1b]  HDAC8 (Homo sapiens, UniProt Q9BY41)                   0.7
3  O=C1CCC(N2C(=O)c3cccc(NC(=O)CCCCCn4cc(COc5ccc(CNc6cc(C(=O)NO)ccc6Cl)cc5)nn4)c3C2=O)C(=O)N1 (stereo not shown) [CRBN_1f]  HDAC8 (Homo sapiens, UniProt Q9BY41)                     5

====

Listed here are molecules together with their documented SI (HDAC6/HDAC8).
- target_of_assay: HDAC8 (Homo sapiens, UniProt Q9BY41)
- test_summary: In vitro HDAC8 activity assay (Fluor de Lys-HDAC8)
- Format: biochemical
- Design: made in house
- measurement_context: selectivity index, HDAC6 over HDAC8
metric: SI (HDAC6/HDAC8)

>>> print(df.to_string())
                                   molecule  recorded_measurement
0  COc1ccc(C(=O)NO)cc1NC(=O)c1ccc(CNC(=O)CCCCCCCNC(=O)CC23CC4CC(CC(C4)C2)C3)cc1                     4
1  COc1ccc(C(=O)NO)cc1NC(=O)c1ccc(NC(=O)CCCCCCCNC(=O)CC23CC4CC(CC(C4)C2)C3)cc1                     2
2  COc1ccc(C(=O)NO)cc1NC(=O)c1ccc(NC(=O)CCCCCNc2cccc3c2C(=O)N(C2CCC(=O)NC2=O)C3=O)cc1 (centres unmarked)                     2
3  COc1ccc(C(=O)NO)cc1NC(=O)c1ccc(CNC(=O)CCCCCCCNc2cccc3c2C(=O)N(C2CCC(=O)NC2=O)C3=O)cc1 (centres unmarked)                     2
4  COc1ccc(C(=O)NO)cc1NC(=O)c1ccc(NC(=O)CCCCCCC(=O)N[C@H](C(=O)N2C[C@H](O)C[C@H]2C(=O)NCc2ccc(-c3scnc3C)cc2)C(C)(C)C)cc1                     3

====

Listed here are compounds together with their documented inhibition at 1 µM.
- target_of_assay: HDAC6 (Homo sapiens, UniProt Q9UBN7)
- Sequence (Q9UBN7 whole entry): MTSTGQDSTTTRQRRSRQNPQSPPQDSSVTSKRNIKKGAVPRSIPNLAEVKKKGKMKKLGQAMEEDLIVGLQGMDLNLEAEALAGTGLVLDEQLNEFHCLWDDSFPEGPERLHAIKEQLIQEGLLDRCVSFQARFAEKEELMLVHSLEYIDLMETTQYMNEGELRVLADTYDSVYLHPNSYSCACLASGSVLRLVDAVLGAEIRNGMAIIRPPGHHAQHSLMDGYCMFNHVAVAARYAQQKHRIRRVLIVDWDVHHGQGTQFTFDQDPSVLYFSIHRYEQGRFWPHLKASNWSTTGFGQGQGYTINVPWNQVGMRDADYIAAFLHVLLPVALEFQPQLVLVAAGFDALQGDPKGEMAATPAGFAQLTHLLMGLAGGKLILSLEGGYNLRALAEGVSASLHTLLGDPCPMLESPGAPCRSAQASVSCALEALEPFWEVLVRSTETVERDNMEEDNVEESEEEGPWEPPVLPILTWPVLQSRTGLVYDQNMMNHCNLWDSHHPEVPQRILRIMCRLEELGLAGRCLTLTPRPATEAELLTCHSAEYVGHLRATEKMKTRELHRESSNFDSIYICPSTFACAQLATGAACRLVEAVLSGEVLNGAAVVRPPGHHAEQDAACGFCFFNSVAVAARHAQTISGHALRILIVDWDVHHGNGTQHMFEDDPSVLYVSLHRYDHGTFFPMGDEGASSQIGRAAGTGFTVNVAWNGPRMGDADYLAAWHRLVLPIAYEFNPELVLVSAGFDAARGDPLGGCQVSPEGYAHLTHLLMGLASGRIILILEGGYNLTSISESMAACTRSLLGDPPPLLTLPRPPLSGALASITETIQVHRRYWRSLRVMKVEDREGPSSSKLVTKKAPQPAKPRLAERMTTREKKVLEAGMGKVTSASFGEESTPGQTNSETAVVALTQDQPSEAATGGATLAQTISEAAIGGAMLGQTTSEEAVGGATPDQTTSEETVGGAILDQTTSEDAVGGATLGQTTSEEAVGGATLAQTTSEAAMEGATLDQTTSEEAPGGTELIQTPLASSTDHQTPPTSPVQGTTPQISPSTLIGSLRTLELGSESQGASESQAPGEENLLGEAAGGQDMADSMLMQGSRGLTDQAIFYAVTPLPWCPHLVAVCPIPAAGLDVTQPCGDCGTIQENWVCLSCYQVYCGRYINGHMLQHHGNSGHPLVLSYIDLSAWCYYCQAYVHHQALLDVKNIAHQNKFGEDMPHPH
- test_summary: In vitro HDAC inhibitory activity assay, recombinant HDAC6 (fluorogenic substrate ZMAL)
- Assay type: biochemical
- Parameters: purchased BPS Biosciences
- measurement_context: 1 µM; read-out: HDAC6 % inhib. at given conc.
metric: inhibition at 1 µM (%)

In [3]: df
Out[3]:
                                   compound                       target_of_assay  unit_label  recorded_measurement
0  O=C(COc1ccc(CNc2cc(C(=O)NO)ccc2Cl)cc1)NCCCCCNC(=O)CC12CC3CC(CC(C3)C1)C2  HDAC6 (Homo sapiens, UniProt Q9UBN7)           %                  12.4
1  O=C(COc1ccc(CNc2cc(C(=O)NO)ccc2Cl)cc1)NCCCOCCOCCOCCCNc1cccc2c1C(=O)N(C1CCC(=O)NC1=O)C2=O (stereo not drawn)  HDAC6 (Homo sapiens, UniProt Q9UBN7)           %                  33.5
2  O=C(COc1ccc(C(=O)Nc2cc(C(=O)NO)ccc2Cl)cc1)NCCCOCCOCCOCCCNc1cccc2c1C(=O)N(C1CCC(=O)NC1=O)C2=O (stereo not drawn)  HDAC6 (Homo sapiens, UniProt Q9UBN7)           %                  85.4
3  O=C(COc1ccc(CNc2cc(C(=O)NO)ccc2Cl)cc1)NCCCCCNc1cccc2c1C(=O)N(C1CCC(=O)NC1=O)C2=O (stereo not drawn)  HDAC6 (Homo sapiens, UniProt Q9UBN7)           %                  24.8
4  Cc1ncsc1-c1ccc(CNC(=O)[C@@H]2C[C@@H](O)CN2C(=O)[C@@H](NC(=O)CCCCCNC(=O)COc2ccc(CNc3cc(C(=O)NO)ccc3Cl)cc2)C(C)(C)C)cc1  HDAC6 (Homo sapiens, UniProt Q9UBN7)           %                   8.3
5  O=C(COc1ccc(C(=O)Nc2cccc(C(=O)NO)c2)cc1)NCCCOCCOCCOCCCNc1cccc2c1C(=O)N(C1CCC(=O)NC1=O)C2=O (stereo not drawn)  HDAC6 (Homo sapiens, UniProt Q9UBN7)           %                  46.2
